molecular target: human NatA (Homo sapiens, UniProt P41227+Q9BXJ9); construct: Human NatA (hNatA) full-length (FL) was cloned; made in house; host or cells: Tnao38 insect cells (baculovirus, pFL vector); assay: In vitro Nt-acetylation assay (NatA, CPM fluorescence); type: biochemical; details: starting peptide concentration 1 mM
Sequence (P41227 whole entry): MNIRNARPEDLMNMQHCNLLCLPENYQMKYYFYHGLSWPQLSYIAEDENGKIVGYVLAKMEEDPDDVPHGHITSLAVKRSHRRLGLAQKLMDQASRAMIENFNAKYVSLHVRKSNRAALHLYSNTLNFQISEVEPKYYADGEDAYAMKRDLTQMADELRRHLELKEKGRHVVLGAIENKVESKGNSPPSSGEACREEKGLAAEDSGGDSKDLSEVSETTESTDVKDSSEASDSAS
Sequence (Q9BXJ9 whole entry partner): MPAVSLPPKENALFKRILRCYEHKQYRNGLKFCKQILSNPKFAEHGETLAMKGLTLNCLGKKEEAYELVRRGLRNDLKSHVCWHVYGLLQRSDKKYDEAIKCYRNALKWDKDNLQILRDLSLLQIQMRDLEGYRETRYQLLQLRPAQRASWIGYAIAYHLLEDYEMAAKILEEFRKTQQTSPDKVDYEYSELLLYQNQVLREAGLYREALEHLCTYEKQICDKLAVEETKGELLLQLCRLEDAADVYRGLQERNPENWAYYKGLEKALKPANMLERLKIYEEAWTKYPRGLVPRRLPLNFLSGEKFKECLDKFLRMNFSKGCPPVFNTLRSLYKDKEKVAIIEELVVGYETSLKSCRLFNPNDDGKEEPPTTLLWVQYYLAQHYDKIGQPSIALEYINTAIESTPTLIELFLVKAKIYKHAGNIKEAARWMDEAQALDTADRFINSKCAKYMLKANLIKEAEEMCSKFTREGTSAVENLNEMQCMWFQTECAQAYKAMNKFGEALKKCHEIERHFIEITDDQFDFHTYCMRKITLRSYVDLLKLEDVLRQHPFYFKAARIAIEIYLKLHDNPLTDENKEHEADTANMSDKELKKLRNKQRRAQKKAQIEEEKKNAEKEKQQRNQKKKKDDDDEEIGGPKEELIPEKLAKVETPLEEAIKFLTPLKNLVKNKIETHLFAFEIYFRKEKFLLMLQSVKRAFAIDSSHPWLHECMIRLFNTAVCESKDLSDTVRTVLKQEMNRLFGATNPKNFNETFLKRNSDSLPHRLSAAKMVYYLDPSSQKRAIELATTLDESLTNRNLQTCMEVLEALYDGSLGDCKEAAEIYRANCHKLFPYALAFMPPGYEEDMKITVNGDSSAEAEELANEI

residue.sequence | Nt-acetylation by NatA (in words)
GCIKSKGKDSKK [Ac-Lyn, Nt-peptide of Lyn (aa 1–10 + KKK-biotin), Nt-acetylated] | low signals
PGLVDSNPAPKK [COX17, Pro-starting peptide from COX17, negative control, reference compound] | low signals

---

tested on: DCAF10; assay: Peptide pull-down with quantitative MS, HeLa lysate, DCAF10; assay type: binding, human (HeLa); details: HeLa lysate, Nt-Ac vs Nt-free peptides

residue.sequence | target | DCAF10 binding (in words)
GCIKSKENKSKK [Ac-Yes, Nt-peptide of Yes, Nt-acetylated] | DCAF10 | bound to DCAF10
GSNKSKPKDAKK [Ac-Src, Nt-peptide of Src, Nt-acetylated] | DCAF10 | bound to DCAF10
GCIKSKGKDSKK [Ac-Lyn, Nt-peptide of Lyn (aa 1–10 + KKK-biotin), Nt-acetylated] | DCAF10 | bound to DCAF10
GCVQCKDKEAKK [Ac-Fyn, Nt-peptide of Fyn, Nt-acetylated] | DCAF10 | bound to DCAF10
